# System: DLD-1
# Run description: Cytotoxicity against human DLD1 cells after 72 hrs by MTT assay
# Type: functional
# Details: DLD-1, 72 h
Readout: GI50 (nM)
One number for each entry, in nM.

{"Smiles representation": "C[C@H]1[C@H](n2cc(-c3ccccc3C(F)(F)F)nn2)O[C@@H]2O[C@]3(C)CC[C@H]4[C@H](C)CC[C@@H]1[C@@]24OO3", "GI50 [nM]": 2380}
{"Smiles representation": "C[C@H]1[C@H](n2nncc2-c2ccccc2C(F)(F)F)O[C@@H]2O[C@]3(C)CC[C@H]4[C@H](C)CC[C@@H]1[C@@]24OO3", "GI50 [nM]": 170}
{"Smiles representation": "CCCCCc1ccc(-c2cn([C@@H]3O[C@@H]4O[C@]5(C)CC[C@H]6[C@H](C)CC[C@@H]([C@H]3C)[C@@]46OO5)nn2)cc1", "GI50 [nM]": 140}
{"Smiles representation": "CCCCCc1ccc(-c2cnnn2[C@@H]2O[C@@H]3O[C@]4(C)CC[C@H]5[C@H](C)CC[C@@H]([C@H]2C)[C@@]35OO4)cc1", "GI50 [nM]": 220}

Give measured GI50 for every item shown.
1. C[C@H]1[C@H](n2cc(-c3ccc(F)cc3)nn2)O[C@@H]2O[C@]3(C)CC[C@H]4[C@H](C)CC[C@@H]1[C@@]24OO3
2. COc1ccc(-c2cnnn2[C@@H]2O[C@@H]3O[C@]4(C)CC[C@H]5[C@H](C)CC[C@@H]([C@H]2C)[C@@]35OO4)cc1
3. C[C@H]1[C@H](n2cc(-c3ccccc3)nn2)O[C@@H]2O[C@]3(C)CC[C@H]4[C@H](C)CC[C@@H]1[C@@]24OO3
4. C[C@@H]1[C@@H](n2cc(-c3ccc(F)cc3)nn2)O[C@@H]2O[C@]3(C)CC[C@H]4[C@H](C)CC[C@@H]1[C@@]24OO3
5. C[C@H]1[C@H](n2cc(-c3cccc(Cl)c3)nn2)O[C@@H]2O[C@]3(C)CC[C@H]4[C@H](C)CC[C@@H]1[C@@]24OO3
6. C[C@H]1[C@H](n2nncc2-c2ccccc2)O[C@@H]2O[C@]3(C)CC[C@H]4[C@H](C)CC[C@@H]1[C@@]24OO3
7. C[C@H]1[C@H](n2nncc2-c2ccc(F)cc2)O[C@@H]2O[C@]3(C)CC[C@H]4[C@H](C)CC[C@@H]1[C@@]24OO3

stdout:
[480, 880, 930, 2150, 290, 600, 310]

stdin: Return the recorded GI50 value; entry: `C[C@H]1[C@H](n2nncc2-c2cccc(Cl)c2)O[C@@H]2O[C@]3(C)CC[C@H]4[C@H](C)CC[C@@H]1[C@@]24OO3`
stdout: 40

* * *

# System: DLD-1
# Run description: Cytotoxicity against human DLD1 cells after 72 hrs by MTT assay
# Assay type: functional
# Details: DLD-1, 72 h
Readout: GI50

Answered examples (2):
{"Smiles representation": "C[C@H]1[C@H](n2cc(-c3cc(F)cc(F)c3)nn2)O[C@@H]2O[C@]3(C)CC[C@H]4[C@H](C)CC[C@@H]1[C@@]24OO3", "GI50": "300 nM"}
{"Smiles representation": "CCCCCc1ccc(-c2cn([C@H]3O[C@@H]4O[C@]5(C)CC[C@H]6[C@H](C)CC[C@@H]([C@@H]3C)[C@@]46OO5)nn2)cc1", "GI50": "840 nM"}

stdin: Return the recorded GI50 value; entry: `CC(=O)O[C@H]1C(=O)[C@@]2(C)[C@H]([C@H](OC(=O)c3ccccc3)[C@]3(O)C[C@H](OC(=O)[C@H](O)[C@@H](NC(=O)c4ccccc4)c4ccccc4)C(C)=C1C3(C)C)[C@]1(OC(C)=O)CO[C@@H]1C[C@@H]2O`
stdout: 10 nM

* * *

# System: SiHa
# Run description: Cytotoxicity against human SiHa cells after 72 hrs by MTT assay
# Type: functional
Readout: GI50
Quick note: number first, unit second.

{"Smiles representation": "CCCCCc1ccc(-c2cn([C@H]3O[C@@H]4O[C@]5(C)CC[C@H]6[C@H](C)CC[C@@H]([C@@H]3C)[C@@]46OO5)nn2)cc1", "Readout": "GI50", "Assay result": "440 nM"}

Give measured GI50 for every item shown.
1. C[C@@H]1[C@@H](n2cc(-c3cccc(Cl)c3)nn2)O[C@@H]2O[C@]3(C)CC[C@H]4[C@H](C)CC[C@@H]1[C@@]24OO3
2. Cc1ccc(-c2cnnn2[C@@H]2O[C@@H]3O[C@]4(C)CC[C@H]5[C@H](C)CC[C@@H]([C@H]2C)[C@@]35OO4)cc1
3. Cc1ccc(-c2cn([C@H]3O[C@@H]4O[C@]5(C)CC[C@H]6[C@H](C)CC[C@@H]([C@@H]3C)[C@@]46OO5)nn2)cc1
4. C[C@H]1[C@H](n2cc(-c3ccccc3C(F)(F)F)nn2)O[C@@H]2O[C@]3(C)CC[C@H]4[C@H](C)CC[C@@H]1[C@@]24OO3
5. C[C@H]1[C@H](n2cc(-c3cccc(Cl)c3)nn2)O[C@@H]2O[C@]3(C)CC[C@H]4[C@H](C)CC[C@@H]1[C@@]24OO3

stdout:
["410 nM", "190 nM", "1580 nM", "320 nM", "240 nM"]

* * *

# Tested on: DLD-1
# Run description: Cytotoxicity against human DLD1 cells after 72 hrs by MTT assay
# Type: functional
# Details: DLD-1, 72 h
Readout: GI50 (nM)
Numbers only, in nM.

Answered examples (5):
{"Smiles representation": "COc1ccc(-c2cn([C@H]3O[C@@H]4O[C@]5(C)CC[C@H]6[C@H](C)CC[C@@H]([C@@H]3C)[C@@]46OO5)nn2)cc1", "GI50, nM": 220}
{"Smiles representation": "Cc1ccc(-c2cn([C@H]3O[C@@H]4O[C@]5(C)CC[C@H]6[C@H](C)CC[C@@H]([C@@H]3C)[C@@]46OO5)nn2)cc1", "GI50, nM": 160}
{"Smiles representation": "C[C@@H]1[C@@H](n2cc(-c3cccc(Cl)c3)nn2)O[C@@H]2O[C@]3(C)CC[C@H]4[C@H](C)CC[C@@H]1[C@@]24OO3", "GI50, nM": 1170}
{"Smiles representation": "Cc1ccc(-c2cnnn2[C@@H]2O[C@@H]3O[C@]4(C)CC[C@H]5[C@H](C)CC[C@@H]([C@H]2C)[C@@]35OO4)cc1", "GI50, nM": 290}
{"Smiles representation": "C[C@H]1[C@H](n2nncc2-c2cc(F)cc(F)c2)O[C@@H]2O[C@]3(C)CC[C@H]4[C@H](C)CC[C@@H]1[C@@]24OO3", "GI50, nM": 170}

Give measured GI50 for every item shown.
1. COc1ccc(-c2cn([C@@H]3O[C@@H]4O[C@]5(C)CC[C@H]6[C@H](C)CC[C@@H]([C@H]3C)[C@@]46OO5)nn2)cc1
2. C[C@@H]1[C@@H](n2cc(-c3cc(F)cc(F)c3)nn2)O[C@@H]2O[C@]3(C)CC[C@H]4[C@H](C)CC[C@@H]1[C@@]24OO3

stdout:
1: 490; 2: 1280

* * *

# System: SiHa
# Run description: Cytotoxicity against human SiHa cells after 72 hrs by MTT assay
# Assay type: functional
Each record's GI50 is compared with lowest: < 0.08 µM; middle: ≥ 0.08 µM and < 0.2 µM; highest: ≥ 0.2 µM to give its class.

See these solved cases before continuing.
{"Smiles representation": "C[C@H]1[C@H](n2nncc2-c2cccc(Cl)c2)O[C@@H]2O[C@]3(C)CC[C@H]4[C@H](C)CC[C@@H]1[C@@]24OO3", "Class": "middle"}
{"Smiles representation": "C[C@@H]1[C@@H](n2cc(-c3cc(F)cc(F)c3)nn2)O[C@@H]2O[C@]3(C)CC[C@H]4[C@H](C)CC[C@@H]1[C@@]24OO3", "Class": "highest"}
{"Smiles representation": "COc1ccc(-c2cn([C@H]3O[C@@H]4O[C@]5(C)CC[C@H]6[C@H](C)CC[C@@H]([C@@H]3C)[C@@]46OO5)nn2)cc1", "Class": "lowest"}
{"Smiles representation": "C[C@H]1[C@H](n2cc(-c3ccc(F)cc3)nn2)O[C@@H]2O[C@]3(C)CC[C@H]4[C@H](C)CC[C@@H]1[C@@]24OO3", "Class": "middle"}
{"Smiles representation": "C[C@H]1[C@H](n2nncc2-c2cc(F)cc(F)c2)O[C@@H]2O[C@]3(C)CC[C@H]4[C@H](C)CC[C@@H]1[C@@]24OO3", "Class": "lowest"}

stdin: Record `COc1ccc(-c2cnnn2[C@@H]2O[C@@H]3O[C@]4(C)CC[C@H]5[C@H](C)CC[C@@H]([C@H]2C)[C@@]35OO4)cc1` — which class?
stdout: highest

stdin: Record `C[C@H]1[C@H](n2cc(-c3cc(F)cc(F)c3)nn2)O[C@@H]2O[C@]3(C)CC[C@H]4[C@H](C)CC[C@@H]1[C@@]24OO3` — which class?
stdout: middle

stdin: Record `C[C@@H]1[C@@H](n2cc(-c3ccc(F)cc3)nn2)O[C@@H]2O[C@]3(C)CC[C@H]4[C@H](C)CC[C@@H]1[C@@]24OO3` — which class?
stdout: highest

stdin: Record `CC(=O)O[C@H]1C(=O)[C@@]2(C)[C@H]([C@H](OC(=O)c3ccccc3)[C@]3(O)C[C@H](OC(=O)[C@H](O)[C@@H](NC(=O)c4ccccc4)c4ccccc4)C(C)=C1C3(C)C)[C@]1(OC(C)=O)CO[C@@H]1C[C@@H]2O` — which class?
stdout: lowest

stdin: Record `Cc1ccc(-c2cn([C@@H]3O[C@@H]4O[C@]5(C)CC[C@H]6[C@H](C)CC[C@@H]([C@H]3C)[C@@]46OO5)nn2)cc1` — which class?
stdout: middle

Sourced from ChEMBL document CHEMBL1177810
